B1: glmS ribozyme (parent)
chain: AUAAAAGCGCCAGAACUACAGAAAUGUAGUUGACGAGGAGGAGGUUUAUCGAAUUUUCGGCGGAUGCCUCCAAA

Variants of: B1
Assay: self-cleavage kobs at 40 uM GlcN6P; higher = faster cleavage; RNA array
Conditions: with glucosamine-6-phosphate
Variants at the floor of the assay were thinned out.
Entries and their self-cleavage kobs at 40 uM GlcN6P values follow.

BIOPOLYMER SEQUENCE | self-cleavage kobs at 40 uM GlcN6P
AUAAAAGCGCCAGAACUACAGAAAUGUAGUUGAUGAGGAUGAGGUUUAUCGAAUUUUCGGCGGAUGCCUCCAAA | < 1e-05 s⁻¹
AUAAAAGCGCCAGAACUACAGAAAUGUAGUUGACGAGGAGGAGGUUUAUCGACUUUUCGGCGGUUGCCUCCAAA | < 1e-05 s⁻¹
AUAAAAGCGCCAGACCUACAGAAAUGUAGUUGACGAGGAGGAGGUUUAUCGAGUUUUCGGCGGAUGCCUCCAAA | 0.000195 s⁻¹
AUAAAAGCGCCAGAACUACAGAAAUGUAGUUGACGAGGAGGAGGCUUAUCGAAUUUUCGGCGGAUGCCUCUAAA | 6.69e-05 s⁻¹
AUAAAAGCGCCAGAACUACAGAAAUGUAGUUGGCGAGGAGGAGGUUUAUUGAAUUUUCGGCGGAUGACUCCAAA | < 1e-05 s⁻¹
AUAAAAGCGCCAGAACUACAGAAAUGUAGUCGACGAGCCGGAGGUUUAUCGAAUUUUCGGCGGAUGCCUCCAAA | < 1e-05 s⁻¹
AUAAAACCGCCAGAACUACAGAAAUGUAGUUGACGAGGAGGAGGUUUAUCGAAUUUUCGGCGCAUGCGACCAAA | < 1e-05 s⁻¹
AUAAAAGCGCCAGAAAUACAGAAAUGUAGUUGACGAGGAGGAGGUUUAUCGAAUUUUCGGCGGUUGCCUCCAAA | < 1e-05 s⁻¹
AUAAAAGAGCCAGAACUACAGAAACGUAGUUGACGAUGAGGAGGUUUAUCGAAUUUUCGGCGGAUGCCGCCAAA | 0.000134 s⁻¹
